Listed below: IC50 values for each entry.
molecular target: active p38 alpha enzyme (Upstate Biotechnology) (Homo sapiens); construct: purchased Upstate Biotechnology; assay: p38α biochemical assay (ATP turnover, luminescent detection, Cambrex PKlight); conditions: p38α biochemical assay, Table 1 Biological Activity

[
  {
    "test-smiles": "Cc1onc(-c2ccc(Cl)cc2)c1-c1ccn(C(=O)NCC(C)C)n1",
    "IC50": "≤ 1 µM"
  }
]

query: Tell me IC50 reported for `C#CCNC(=O)c1csc(-c2c(-c3ccc(F)cc3)ncn2C)n1`
result: ≤ 1 µM

query: Tell me IC50 reported for `CC(C)NC(=O)c1csc(-c2c(-c3ccc(F)cc3)noc2CNC(=O)c2cccc(O)c2)n1`
result: > 1 µM

###

Listed below: IC50 values for each entry.
Target: active p38 alpha enzyme (Upstate Biotechnology) (Homo sapiens, UniProt Q16539)
Construct: purchased Upstate Biotechnology
Sequence (Q16539 whole entry): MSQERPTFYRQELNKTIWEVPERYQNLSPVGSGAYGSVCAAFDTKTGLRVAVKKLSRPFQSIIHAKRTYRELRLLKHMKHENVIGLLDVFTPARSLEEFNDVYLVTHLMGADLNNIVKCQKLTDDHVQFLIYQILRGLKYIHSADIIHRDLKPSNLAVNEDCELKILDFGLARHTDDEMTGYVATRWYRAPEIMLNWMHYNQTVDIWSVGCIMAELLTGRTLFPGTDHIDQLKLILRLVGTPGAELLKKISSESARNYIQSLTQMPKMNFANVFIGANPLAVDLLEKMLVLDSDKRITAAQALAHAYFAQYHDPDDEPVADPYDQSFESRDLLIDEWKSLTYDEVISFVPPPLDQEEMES
Experiment: p38α biochemical assay (ATP turnover, luminescent detection, Cambrex PKlight)
Conditions: p38α kinase; Table 1 Biological Activity
Description: The p38α biochemical assay employed is based on measurement of total ATP turnover following enzyme incubation with substrate in the presence of ATP with the use of a luminescent detection reagent (Cambrex PKlight). […] The final volume was 7.5005 μL as prepared prepared from the addition of 5 ul of kinase reaction (p38 alpah+MapkapK2+ATP) with 0.0005 μL compound dissolved in DMSO, and 2.5 ul of the detection reagent. […] Assay is read using a Perkin Elmer Viewlux.

Sample records with IC50:
[
  {
    "compound": "COc1ccc(NC(=O)c2csc(-c3c(-c4ccc(F)cc4)n[nH]c3C3CCNCC3)n2)cc1OC [Example 2125]",
    "system-name": "active p38 alpha enzyme (Upstate Biotechnology) (Homo sapiens, UniProt Q16539)",
    "endpoint-value": "> 1000 nM"
  },
  {
    "compound": "N#CCCN(Cc1ccccc1)C(=O)c1csc(-c2c(-c3ccc(F)cc3)n[nH]c2C2CCNCC2)n1 [Example 2132]",
    "system-name": "active p38 alpha enzyme (Upstate Biotechnology) (Homo sapiens, UniProt Q16539)",
    "endpoint-value": "> 1000 nM"
  },
  {
    "compound": "CCOC(=O)N1CCC(NCc2nc(-c3ccc(F)cc3)c(-c3nc(C(=O)NC(C)C)cs3)o2)CC1 [Example 1164]",
    "system-name": "active p38 alpha enzyme (Upstate Biotechnology) (Homo sapiens, UniProt Q16539)",
    "endpoint-value": "> 1000 nM"
  }
]

query: Tell me IC50 reported for Cc1ccc(C)c(CNC(=O)c2csc(-c3sc(C)nc3-c3ccc(F)cc3)n2)c1 [Example 1769]
result: > 1000 nM

query: Tell me IC50 reported for CC(C)NC(=O)c1csc(-c2c(-c3ccc(F)cc3)n[nH]c2C2CCN(C(=O)c3cccc(O)c3)CC2)n1 [Example 838]
result: ≤ 1000 nM

query: Tell me IC50 reported for O=C(NCCc1ccc(F)cc1)c1csc(-c2c(-c3ccc(F)cc3)n[nH]c2C2CCNCC2)n1 [Example 2104]
result: > 1000 nM

query: Tell me IC50 reported for CCOC(=O)N1CCC(NC(=O)c2csc(-c3sc(C)nc3-c3ccc(F)cc3)n2)CC1 [Example 1816]
result: > 1000 nM

query: Tell me IC50 reported for Cc1ccc(NCc2onc(-c3ccc(F)cc3)c2-c2nc(C(=O)NC(C)C)cs2)nc1 [Example 1634]
result: > 1000 nM

query: Tell me IC50 reported for CC(C)NC(=O)c1csc(-c2oc(CN3CCN(CCN4CCOCC4)CC3)nc2-c2ccc(F)cc2)n1 [Example 1278]
result: > 1000 nM

query: Tell me IC50 reported for COc1ccc2cc(C(C)C(=O)N3CCC(c4[nH]nc(-c5ccc(F)cc5)c4-c4nc(C(=O)NC(C)C)cs4)CC3)ccc2c1 (stereo not shown) [Example 1027]
result: > 1000 nM

query: Tell me IC50 reported for CCOC(=O)CC1C(=O)NCCN1C(=O)c1csc(-c2sc(C)nc2-c2ccc(F)cc2)n1 (stereo not shown) [Example 1908]
result: ≤ 1000 nM

query: Tell me IC50 reported for Cc1nc(-c2ccc(F)cc2)c(-c2nc(C(=O)NCC(C)C)cs2)s1 [Example 1717]
result: > 1000 nM

query: Tell me IC50 reported for Cc1cc(C)cc(NCc2onc(-c3ccc(F)cc3)c2-c2nc(C(=O)NC(C)C)cs2)c1 [Example 1646]
result: > 1000 nM

Cited source for all entries: patent US20060252807A1
